B1: OAS1 (parent)
chain: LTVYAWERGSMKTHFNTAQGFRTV

Variants of: B1
runDescription: protein stability index of a GFP-peptide fusion (GPS, HEK-293T) (PSI 1-6); higher = more stable;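 note: lentivirally expressed fusions sorted by FACS into six bins by GFP to DsRed ratio, PSI derived from sequencing read proportions per bin multiplied by bin number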
measurementParameters: c terminus: a fixed tail appended
valueKind: protein stability index
Give the figure by itself; no unit, no explanation.

Use these answered entries as a reference point.
{"mutationLabel": "Y4N", "protein stability index": 1.94}
{"mutationLabel": "R8W", "protein stability index": 2.69}
{"mutationLabel": "L1V", "protein stability index": 1.5}
{"mutationLabel": "S10F", "protein stability index": 2.93}
{"mutationLabel": "T23G", "protein stability index": 2.76}

So for `R8P` , the logged protein stability index turned out to be 4.46

So for `S10E` , the logged protein stability index turned out to be 3.28

So for `G20D` , the logged protein stability index turned out to be 2.18

So for `A18E` , the logged protein stability index turned out to be 1.54

So for `A5G` , the logged protein stability index turned out to be 2.14

So for `Q19W` , the logged protein stability index turned out to be 1.62

So for `K12Q` , the logged protein stability index turned out to be 2.43

So for `V24C` , the logged protein stability index turned out to be 2.83

So for `V24S` , the logged protein stability index turned out to be 3.01

So for `T13Q` , the logged protein stability index turned out to be 2.06

So for `M11I` , the logged protein stability index turned out to be 1.97

So for `V3L` , the logged protein stability index turned out to be 2.49

So for `S10A` , the logged protein stability index turned out to be 2.05
